The measured values listed here are drawn from patent US7019112B1.

System: T2 cells
procedure-details: Chromium release assay: reconstitution of epitopes on peptide-pulsed T2 cells for HLA-A2.1-restricted melanoma-specific CTL
details: read-out: half-maximal lysis; other assays
pEC50: −log10 of the molar value. Where no end group is shown, it is not given here.
endpoint: pEC50

- substance: "Tyr Xaa Glu Pro Gly Pro Val Thr Ala (YXEPGPVTA; not fully specified; X: randomised place (mixture)) [compound 946]"
  recorded-result: 12.00
